Can you tell me DR/DR AA for the items I'm about to list?
- ASSAY_COMMENT: Probe fluorescence ratio response to arachidonic acid relative to ADIFAB2
- Type: binding
- TEST_CONTEXT: arachidonic acid; response relative to ADIFAB2
Note: the reply should be a number with no unit written.

Item under review: 18V 31A 55W 73W 72A (protein, listed as Rattus norvegicus, PEPTIDE (1)...(131) wild-type rat intestinal fatty acid binding protein) AFDGTWKVDRNENYEKFVEKMGINVVKRKLAAHDNLKLTITQEGNKFTVKESSNWRNIDVVFELGVDFAYSAWDGTELTGTWTMEGNKLVGKFKRVDNGKELIAVREISGNELIQTYTYEGVEAKRIFKKE . Reported DR/DR AA?
1.130

Moving on to 119K, 72A (protein, listed as Rattus norvegicus, PEPTIDE (1)...(131) wild-type rat intestinal fatty acid binding protein) AFDGTWKVDRNENYEKFMEKMGINVVKRKLGAHDNLKLTITQEGNKFTVKESSNFRNIDVVFELGVDFAYSAADGTELTGTWTMEGNKLVGKFKRVDNGKELIAVREISGNELIQTYTKEGVEAKRIFKKE
0.78

Moving on to 126A, 72A (protein, listed as Rattus norvegicus, PEPTIDE (1)...(131) wild-type rat intestinal fatty acid binding protein) AFDGTWKVDRNENYEKFMEKMGINVVKRKLGAHDNLKLTITQEGNKFTVKESSNFRNIDVVFELGVDFAYSAADGTELTGTWTMEGNKLVGKFKRVDNGKELIAVREISGNELIQTYTYEGVEAKAIFKKE
1.27
